# measurement setup: in 1,4-dioxane, 323.15 K
endpoint name: solubility (mole fraction)
One number for each entry.

Requested read-out: solubility (mole fraction). Entry: N#Cc1ccc2c(c1)OCO2 0.406

* * *

# measurement setup: in 2-methoxyethanol, 278.15 K
endpoint name: solubility (mole fraction)
One number for each entry.

Requested read-out: solubility (mole fraction). Entry: N#Cc1ccc2c(c1)OCO2 0.0495

* * *

# measurement setup: in isopropyl acetate, 293.15 K
endpoint name: solubility (mole fraction)
Numbers only.

Requested read-out: solubility (mole fraction). Entry: N#Cc1ccc2c(c1)OCO2 0.112

* * *

# measurement setup: in methanol, 288.15 K
endpoint name: solubility (mole fraction)
Answers are plain numbers.

Requested read-out: solubility (mole fraction). Entry: N#Cc1ccc2c(c1)OCO2 0.0123

Where do these numbers come from? They come from BigSolDB 2.1.
